// data source = PubChem BioAssay (NCI)

# System: SK-OV-3 ovarian
# assay-method-text: NCI tumour cell line growth inhibition, 48 h

{"smiles": "COc1cc2c(=O)n(CC3CCCCC3)c3c4cc[nH]c4ncc3c2cc1OC", "GI50": "4.36 µM"}
{"smiles": "CCCCCCCCc1cc(O)ccc1O", "GI50": "34.8 µM"}
{"smiles": "C[C@@H](C[C@H](CCO)c1ccccc1)c1ccc2ccccc2c1", "GI50": "1.7 µM"}

* * *

# System: SK-OV-3 ovarian
# assay-method-text: NCI tumour cell line growth inhibition, 48 h

{"compound": "NC1=Nc2ccccc2Sc2ccccc21", "TGI": "> 100 µM"}
{"compound": "O=C1C(OC(=O)c2ccccc2)=C(c2ccc(O)cc2)C(=O)C(OC(=O)c2ccccc2)=C1c1ccc(O)cc1", "TGI": "> 100 µM"}
{"compound": "O=C1/C(=C/c2ccc(O)cc2)Oc2ccccc21", "TGI": "> 100 µM"}
{"compound": "N/C(CC(=O)NOC(=O)c1ccccc1)=N/OC(=O)c1ccccc1", "TGI": "97.3 µM"}
{"compound": "COc1ccc(C2C3=C(COC3=O)N(CCO)c3cc4c(cc32)CCC4)cc1 (centres undefined)", "TGI": "> 50 µM"}
{"compound": "O=C(CN1CCN(c2ccccn2)CC1)N1CCCn2c1nc1ccccc1c2=O", "TGI": "> 100 µM"}
{"compound": "ClC1=C(Cl)C2OC3C=CCC3OC2C(Cl)=C1Cl (centres undefined)", "TGI": "> 100 µM"}
{"compound": "CN(C)C(=S)/N=c1\\ss/c(=N\\S(=O)(=O)c2ccccc2)n1C", "TGI": "> 100 µM"}
{"compound": "Cc1ccsc1/C=N/Nc1cc(C)c2ccccc2n1", "TGI": "35.6 µM"}
{"compound": "CC1C(c2ccccc2)NC(c2ccccc2)CC1(N)C#N (centres undefined)", "TGI": "> 100 µM"}
{"compound": "CCN(CC)C(=O)c1cc([N+](=O)[O-])c(=O)n2c1[nH]c1ccccc12", "TGI": "> 100 µM"}
{"compound": "O=C(O)c1cccc(S(=O)(=O)NN2C(=O)CSC2c2c(O)ccc3ccccc23)c1 (centres undefined)", "TGI": "> 100 µM"}
{"compound": "C=C(Cl)CN1c2ccccc2C=Cc2ccccc21", "TGI": "> 100 µM"}
{"compound": "CCC(C)N1CN(c2ccccc2)C2(CCN(CCCC3(c4ccc(F)cc4)OCCO3)CC2)C1=O (centres undefined)", "TGI": "56 µM"}
{"compound": "CC1(C2CCC3(C)C(C2)C3Sc2ccccc2)OCCO1 (centres undefined)", "TGI": "88.6 µM"}
{"compound": "CCCCCCCCCCOc1ccc(N=Nc2nnc(-c3ccc(OCCCCC)cc3)s2)cc1", "TGI": "> 100 µM"}
{"compound": "O=C(N/C(=C\\c1ccc(F)cc1)c1nc2ccccc2[nH]1)c1ccccc1", "TGI": "> 100 µM"}
{"compound": "CC(=O)/C(=C/N1CCN(C(=O)c2ccco2)C1=S)C(=O)c1ccccc1", "TGI": "> 50 µM"}
{"compound": "CCc1n[nH]c(=O)[nH]1", "TGI": "> 100 µM"}
{"compound": "Fc1ccc2c(c1)nc1n2C(c2c(F)cccc2F)SC1 (centres undefined)", "TGI": "> 100 µM"}
{"compound": "Nc1c(C(=O)O)nnc2cc(Cl)ccc12", "TGI": "> 100 µM"}
{"compound": "CCN(CCC#N)C(=O)Nc1ccccc1", "TGI": "> 100 µM"}
{"compound": "COC(=O)c1cc(C)[nH]c2c(C)cc3nc4ccccc4c3c12", "TGI": "26.5 µM"}
{"compound": "COc1cccc(N(CN2C(=O)CCC2OC)C(C)=O)c1 (centres undefined)", "TGI": "> 100 µM"}
